- Tgt: T1, CD123 (protein in solution in the Octet affinity assay) (human, UniProt P26951 19-305, limits assumed)
- T1 construct: also called IL-3Rα; Interleukine-3 Receptor alpha
- T1 sequence (looked up): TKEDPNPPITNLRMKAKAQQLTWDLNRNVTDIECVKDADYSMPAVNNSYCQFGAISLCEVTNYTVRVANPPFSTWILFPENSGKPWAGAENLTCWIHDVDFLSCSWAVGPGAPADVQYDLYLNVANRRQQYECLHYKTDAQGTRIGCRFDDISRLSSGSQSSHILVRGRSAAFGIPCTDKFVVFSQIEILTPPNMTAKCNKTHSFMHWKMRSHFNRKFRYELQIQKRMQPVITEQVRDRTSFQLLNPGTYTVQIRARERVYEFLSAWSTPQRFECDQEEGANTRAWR
- Assay comment: BLI (Octet), antibody on streptavidin biosensor, CD123 12.5 nM
Reported metric: Response
Give bare numbers.

Please review the following examples before continuing.
18B4D5 (antibody, V domains shown, Mouse hybridoma monoclonal antibody; The tie uses 'at least 85% identity' wording; also called AB1; antiCD123 B4D5) VH: EVKLQESGPGLVKPSQSLSLTCTVTGYSITSDYTWNWIRQFPGNKLEWMGYISFSGSTSYNPSLKSRLSITRDTSKNQFFLQLNSVTTEDTATYYCARGLDYWGQGTTLTVSS VL: DIVMTQSPAIMSASLGERVTMTCTASSSISSSYLYWYQQKPGSSPKLWIYSTSNLASGVPARFSGSGSGTSYSLTISSMEAEDAATYYCHQLHRSPWTFGGGTKLEIKR	0.23
15E11B7 (antibody, V domains shown, Mouse hybridoma monoclonal antibody; also called AB6) VH: EVQLEQSGPELVKPGDSVKISCKASGYSFTGYFMNWVKQSHGKSLEWIGRINPYNDYTFNNQKFKDKATLTVDKSSSTAHMELLSLTSEDSAVYYCGGGVRGAWFAFWGQGTLVTVSE VL: DIVLTQSTTSLAVSLGQRATISCRASKSVSTSGYNYMHWYQQKPGQPPKLLIYLASNLESGVPARFSGSGSGTDFTLNIHPVEEEDAATYYCQHSADLPYTFGGGTKLEIKR	0.155
11B6E6 (antibody, V domains shown, Mouse hybridoma monoclonal antibody; also called AB3) VH: QVKLEESGPGLVAPSQSLSITCTVSGFSLTSYDISWIRQPPGKGLEWLGVIWTGGGTNYNSAFMSRLSISKDNSKSQVFLKMFSLQTDDTAIYYCVRAHGYYFAMDYWGQGTSVTVSS VL: DIVLTQSPSSLAVSAGEKVTMRCKSSQSLLNSSTRKNYLAWYQQKPGQSPKLLIYWASTRESGVPDRFTGSGSGTDFTLTISSVQAEDLAVYYCKQSYNLFTFGSGTKLEIKR	0.0895
11A12C6 (antibody, V domains shown, Mouse hybridoma monoclonal antibody; also called AB5) VH: QVQLKESGPGLVAPSQSLSITCTVSGFSLTSYDINWIRQTPGKGLEWLGVIWTGGGTNYNSAFMSRLSISRDNSKSQVFLKMNSLQTDDTAIYYCVRGDGYYWYFDVWGAGTTVTVSS VL: IVMTQSPSSLAVSAGEKVTMSCKSSQSLFSSSARKNYLAWYQQRPGQSPKLLIYWASTRESGVPDRFTGSGSGTDFTLTIGSVQAEDLAVYYCKQSYSLFTFGSGTKLEIKR	0.416

Would you kindly look at the next entry?
Suppose we examine the binder 17F7B2 (antibody, V domains shown, Mouse hybridoma monoclonal antibody; also called AB2) VH: EVQLQQSGTVLARPGASVKMSCKASGYSFTSYWMHWVKQRPGQGLEWIGAFYPGKSDTTYNQKFKGKAKLTAVTSASTAYMELSSLTNEDSAVYYCTKGYRYDWFAYWGQGTLVTVSA VL: DVVMTQTPLSLPVSLGDQASISCRSSQSLVHSNGITYLHWYLQKPGQSPKLLIYKVSNRFSGVPDRFSGSGSGTDFTLKISRVEAEDLGVYFCSQNTHVPFTFGSGTKLEIKR ; what Response value has been reported?
0.265
